Where these numbers come from: patent US8524750B2

- assay_system: Mycobacterium tuberculosis InhA (Mycobacterium tuberculosis)
- Construct: made in house; host or cells: E. coli
- Sequence (P9WGR1 whole entry, looked up): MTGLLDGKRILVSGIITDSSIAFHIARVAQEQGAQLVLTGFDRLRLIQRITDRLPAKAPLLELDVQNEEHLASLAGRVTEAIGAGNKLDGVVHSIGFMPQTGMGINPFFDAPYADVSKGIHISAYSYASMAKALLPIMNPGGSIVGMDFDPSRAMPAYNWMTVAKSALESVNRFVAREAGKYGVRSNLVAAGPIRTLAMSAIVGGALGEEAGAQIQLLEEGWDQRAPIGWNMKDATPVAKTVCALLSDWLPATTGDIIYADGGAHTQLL
- experiment_summary: Mycobacterium tuberculosis InhA Inhibition Assay (Enzyme Assay)
- Type: biochemical
- setup_conditions: 5 nM InhA, 50 μM DDCoA, 50 μM NADH, PIPES buffer pH 6.8; initial velocities of NADH consumption; read-out: IC50 value
pIC50: −log10 of the molar value.
experimental_readout: pIC50

Sample records with pIC50:
{"columns": ["compound", "pIC50"],
 "data": [
  ["Cc1cc(C)n(Cc2nnc(Nc3ccn(Cc4ccccc4)n3)s2)n1 [Example 64]", "5.86 to 6.56"],
  ["Cc1cc([N+](=O)[O-])nn1Cc1nnc(Nc2ccn(Cc3c(F)cccc3Cl)n2)s1 [Example 50]", "> 6.95"],
  ["Cc1ccn(C(C)c2nnc(Nc3ccn(Cc4cccc(C)c4F)n3)s2)n1 (stereo not shown) [Example 13]", "> 6.90"],
  ["Cc1cc(C)n(C(C)c2nnc(Nc3cc(C)n(Cc4c(F)cccc4Cl)n3)s2)n1 (stereo not shown) [Example 19]", "> 6.95"],
  ["Cc1csc(Cc2nnc(Nc3ccn(Cc4c(F)cccc4Cl)n3)s2)n1 [Example 32]", "> 6.93"],
  ["Cc1cc(C)n(C(C)c2nnc(Nc3ccn(Cc4c(F)cccc4F)n3)s2)n1 (stereo not shown) [Example 12]", "> 6.92"],
  ["Cc1cc(C)n(C(C)c2nnc(Nc3ccn(Cc4cc(C(F)(F)F)ccc4C(F)(F)F)n3)s2)n1 (stereo not shown) [Example 8]", "> 7.01"],
  ["Cc1cc(C)n(C(C)c2nnc(Nc3ccn(Cc4ccccc4C(F)(F)F)n3)s2)n1 (stereo not shown) [Example 1]", "> 6.95"]
]}

Problem: What does the record list as pIC50 for Cc1cc([N+](=O)[O-])nn1Cc1nnc(Nc2ccn(Cc3ccccc3)n2)s1 [Example 62] ?
Solution: 5.90 to 6.60

Problem: What do you have for Cc1csc([C@@](C)(O)c2nnc(Nc3ccn(Cc4c(F)cccc4Cl)n3)s2)n1 (single isomer, unassigned) [Example 71] ?
Solution: > 6.96

Problem: What do you have for Cc1cc(C)n(C(C)c2nnc(Nc3ccn(Cc4cccc(N)c4C)n3)s2)n1 (stereo not shown) [Example 27] ?
Solution: > 6.91

Problem: What do you have for Cc1ccn(C(C)c2nnc(Nc3ccn(Cc4cccc(F)c4F)n3)s2)n1 (stereo not shown) [Example 15] ?
Solution: > 6.90

Problem: What do you have for Cc1ccn([C@H](C)c2nnc(Nc3ccn(Cc4c(F)cccc4Cl)n3)s2)n1 (single isomer, unassigned) [Example 66] ?
Solution: > 6.92

Problem: What do you have for Cc1cc(C)n(C(C)c2nnc(Nc3ccn(Cc4c(Cl)ccc(C)c4F)n3)s2)n1 (stereo not shown) [Example 22] ?
Solution: > 6.95

Problem: What do you have for Cc1ccn(Cc2nnc(Nc3ccn(Cc4c(Cl)cccc4Cl)n3)s2)n1 [Example 57] ?
Solution: > 6.92

Problem: What do you have for Fc1cccc(Cl)c1Cn1ccc(Nc2nnc(Cn3ccc(C(F)(F)F)n3)s2)n1 [Example 63] ?
Solution: 5.96 to 6.66

Problem: What do you have for Cc1cc([N+](=O)[O-])nn1Cc1nnc(Nc2ccn(Cc3ccccc3Cl)n2)s1 [Example 58] ?
Solution: 5.94 to 6.63

Problem: What do you have for Cc1ccn(Cc2nnc(Nc3ccn(Cc4c(F)cccc4Cl)n3)s2)n1 [Example 39] ?
Solution: > 6.91

---

Below, each of the compounds is paired with its reported pIC50 value.
- assay_system: Mycobacterium tuberculosis InhA (Mycobacterium tuberculosis)
- Construct: made in house; host or cells: E. coli
- experiment_summary: Mycobacterium tuberculosis InhA Inhibition Assay (Enzyme Assay)
- Assay type: biochemical
- setup_conditions: 5 nM InhA, 50 μM DDCoA, 50 μM NADH, PIPES buffer pH 6.8; initial velocities of NADH consumption; read-out: IC50 value
- Procedure: Mycobacterium tuberculosis InhA Inhibition Assay (Enzyme Assay) InhA is able to reduce 2-trans enoyl-CoA esters with concomitant oxidation of NADH to NAD^+. The assay format is based on the kinetic detection of NADH consumption. Assay for InhA inhibition is carried out with mycobacterium recombinant protein expressed and purified form E. coli. […] Fluorescence from NADH is followed at room temperature during 20 minutes in a fluorescent plate reader (excitation at 340 nm; emission at 480 nm). […]
pIC50: −log10 of the molar value.

{"columns": ["compound", "value_measured"],
 "data": [
  ["Cc1cc(C)n(C(C)c2nnc(Nc3ccn(Cc4cccc(Cl)c4F)n3)s2)n1 (centres unmarked) [Example 7]", "> 6.94"],
  ["Cc1cc(C)n(Cc2nnc(Nc3ccn(Cc4c(F)cccc4Cl)n3)s2)n1 [Example 51]", "> 6.92"],
  ["Cc1ccn(C(C)c2nnc(Nc3ccn(Cc4c(Cl)cccc4Cl)n3)s2)n1 (centres unmarked) [Example 54]", "> 6.94"],
  ["Cc1csc(C(C)c2nnc(Nc3ccn(Cc4cccc(Cl)c4F)n3)s2)n1 (centres unmarked) [Example 33]", "> 6.94"],
  ["Cc1cc(C(F)F)nn1Cc1nnc(Nc2ccn(Cc3c(F)cccc3Cl)n2)s1 [Example 55]", "> 6.96"]
]}

Problem: What does the record list as pIC50 for Cc1cc(C)n(C(C)c2nnc(Nc3ccn(Cc4cc(C(F)(F)F)ccc4Cl)n3)s2)n1 (centres unmarked) [Example 11] ?
Solution: > 6.98

Problem: What do you have for Cc1cc(C)n(C(C)c2nnc(Nc3ccn(Cc4cccc(C)c4F)n3)s2)n1 (centres unmarked) [Example 24] ?
Solution: > 6.92

Problem: What do you have for Cc1cc(C)n(C(C)c2nnc(Nc3ccn(Cc4ccccc4)n3)s2)n1 (centres unmarked) [Example 21] ?
Solution: > 6.88

Problem: What do you have for Cc1ccn(C(C)c2nnc(Nc3ccn(Cc4cc(Cl)ccc4Cl)n3)s2)n1 (centres unmarked) [Example 4] ?
Solution: > 6.94

Problem: What do you have for COC(C)(c1nc(C)cs1)c1nnc(Nc2ccn(Cc3c(F)cccc3Cl)n2)s1 (centres unmarked) [Example 72] ?
Solution: > 6.97

Problem: What do you have for Cc1cc([N+](=O)[O-])nn1C(C)c1nnc(Nc2ccn(Cc3ccccc3Cl)n2)s1 (centres unmarked) [Example 40] ?
Solution: > 6.95

Problem: What do you have for FC(F)(F)c1ccn(Cc2nnc(Nc3ccn(Cc4ccccc4Cl)n3)s2)n1 [Example 59] ?
Solution: 5.94 to 6.64

Problem: What do you have for Cc1cc(C)n([C@@H](C)c2nnc(Nc3ccn(Cc4c(F)cccc4Cl)n3)s2)n1 (single isomer, unassigned) [Example 69] ?
Solution: > 6.94

Problem: What do you have for Cc1cc(C)n(C(C)c2nnc(Nc3ccn(Cc4ccccc4F)n3)s2)n1 (centres unmarked) [Example 6] ?
Solution: > 6.90

Problem: What do you have for Cc1cc(C)n(C(C)c2nnc(Nc3ccn(Cc4c(F)cccc4Cl)n3)s2)n1 (racemic) [Example 28] ?
Solution: > 6.94

Problem: What do you have for Cc1cc([N+](=O)[O-])nn1Cc1nnc(Nc2ccn(Cc3c(Cl)cccc3Cl)n2)s1 [Example 65] ?
Solution: < 5.97

Problem: What do you have for Cc1cc(C)n(Cc2nnc(Nc3ccn(Cc4c(Cl)cccc4Cl)n3)s2)n1 [Example 53] ?
Solution: > 6.94

---

- Tested on: Mycobacterium tuberculosis H37Rv
- experiment_summary: Mycobacterium tuberculosis H37Rv Inhibition Assay (Whole Cell Assay)
- Assay type: cell-based
- setup_conditions: ATCC 25618 / H37Rv, H37Rv strain (ATCC25618), Middlebrook 7H9, six days at 37° C., resazurin fluorescence after 48 hours
experimental_readout: MIC

Sample records with MIC:
{"columns": ["compound", "experimental_readout", "value_measured"],
 "data": [
  ["Cc1csc(C(C)c2nnc(Nc3ccn(Cc4c(F)ccc(C)c4F)n3)s2)n1 (stereo not shown) [Example 85]", "MIC", "1 to 4 µM"],
  ["Cc1cc(C)n(C(C)c2nnc(Nc3ccn(Cc4ccccc4C(F)(F)F)n3)s2)n1 (stereo not shown) [Example 1]", "MIC", "4 to 10 µM"],
  ["Cc1cc(C)n(C(C)c2nnc(Nc3ccn(Cc4cc(Cl)ccc4Cl)n3)s2)n1 (stereo not shown) [Example 2]", "MIC", "> 10 µM"]
]}

In the following, a different compound is considered.
Problem: What does the record list as MIC for Cc1csc(C(C)(O)c2nnc(Nc3ccn(Cc4c(F)ccc(C)c4F)n3)s2)n1 (stereo not shown) [Example 84] ?
Solution: ≤ 1 µM

---

- System: Mycobacterium tuberculosis H37Rv
- experiment_summary: Mycobacterium tuberculosis H37Rv Inhibition Assay (Whole Cell Assay)
- Format: cell-based
- setup_conditions: ATCC 25618 / H37Rv, H37Rv strain (ATCC25618), Middlebrook 7H9, six days at 37° C., resazurin fluorescence after 48 hours
Below, each of the molecules is paired with its reported MIC value.

Sample records with MIC:
{"columns": ["molecule", "MIC"],
 "data": [
  ["Cc1csc(C(C)(O)c2nnc(Nc3ccn(Cc4cccc(C)c4F)n3)s2)n1 (centres unmarked)", "≤ 1 µM"],
  ["Cc1cc(C)n(C(C)c2nnc(Nc3ccn(Cc4ccccc4)n3)s2)n1 (centres unmarked)", "4 to 10 µM"]
]}

In the following, a different molecule is considered.
Problem: What does the record list as MIC for Cc1cc(C)n(C(C)c2nnc(Nc3ccn(Cc4c(F)cccc4Cl)n3)s2)n1 (racemic) ?
Solution: ≤ 1 µM
